Every entry's value here was drawn from paper PMC9404711.

# System: human erythrocytes
# test-context: 150 μM peptide; 0.5% (v/v) red blood cell suspension in PBS, 1 h at 37 °C, absorbance 414 nm; melittin positive control, PBS negative control; three wells
Non-standard residues stand in square brackets, D forms with d. Residues, ends and D or L forms follow the SMILES beside them. *: point of attachment. Myristoyl = CCCCCCCCCCCCCC(=O)*; Lauroyl = CCCCCCCCCCCC(=O)*; Decanoyl = CCCCCCCCCC(=O)*; Octanoyl = CCCCCCCC(=O)*; Hexanoyl = CCCCCC(=O)*
measurement-kind: % hemolysis of human erythrocytes (%)
Answers are plain numbers, in %.

These solved cases illustrate the format of a correct answer.
molecule	observed-value
CCCCCCCCCCCC(=O)N[C@H](CCCCN)C(=O)N[C@H](CCCCN)C(=O)N[C@H](CC(C)C)C(=O)N[C@H](Cc1ccccc1)C(=O)N[C@H](CCCCN)C(=O)N[C@H](CCCCN)C(=O)N[C@@H](C(=O)N[C@H](CC(C)C)C(=O)N[C@H](CCCNC(=N)N)C(=O)N[C@H](Cc1ccc(O)cc1)C(=O)N[C@H](CC(C)C)C(N)=O)[C@H](C)CC [compound 5] (Lauroyl-[dK][dK][dL][dF][dK][dK][dI][dL][dR][dY][dL]-NH2)	100
CCCCCCCCCC(=O)N[C@H](CCCCN)C(=O)N[C@H](CCCCN)C(=O)N[C@H](CC(C)C)C(=O)N[C@H](Cc1ccccc1)C(=O)N[C@H](CCCCN)C(=O)N[C@H](CCCCN)C(=O)N[C@@H](C(=O)N[C@H](CC(C)C)C(=O)N[C@H](CCCNC(=N)N)C(=O)N[C@H](Cc1ccc(O)cc1)C(=O)N[C@H](CC(C)C)C(N)=O)[C@H](C)CC [compound 4] (Decanoyl-[dK][dK][dL][dF][dK][dK][dI][dL][dR][dY][dL]-NH2)	100
CC[C@@H](C)[C@@H](NC(=O)[C@@H](CCCCN)NC(=O)[C@@H](CCCCN)NC(=O)[C@@H](Cc1ccccc1)NC(=O)[C@@H](CC(C)C)NC(=O)[C@@H](CCCCN)NC(=O)[C@H](N)CCCCN)C(=O)N[C@H](CC(C)C)C(=O)N1CCCC[C@H](C(N)=O)NC(=O)[C@@H](Cc2ccc(O)cc2)NC(=O)[C@@H](CCCNC(=N)N)NC(=O)C1 [compound 7]	3
CC[C@@H](C)[C@H]1NC(=O)CN(C(=O)[C@@H](CCCCN)NC(=O)[C@@H](CCCCN)NC(=O)[C@@H](Cc2ccccc2)NC(=O)[C@@H](CC(C)C)NC(=O)[C@@H](CCCCN)NC(=O)[C@H](N)CCCCN)CCCC[C@H](C(N)=O)NC(=O)[C@@H](Cc2ccc(O)cc2)NC(=O)[C@@H](CCCNC(=N)N)NC(=O)[C@@H](CC(C)C)NC1=O [compound 9]	3
CCCCCC(=O)N[C@H](CCCCN)C(=O)N[C@H](CCCCN)C(=O)N[C@H](CC(C)C)C(=O)N[C@H](Cc1ccccc1)C(=O)N[C@H](CCCCN)C(=O)N[C@H](CCCCN)C(=O)N[C@@H](C(=O)N[C@H](CC(C)C)C(=O)N[C@H](CCCNC(=N)N)C(=O)N[C@H](Cc1ccc(O)cc1)C(=O)N[C@H](CC(C)C)C(N)=O)[C@H](C)CC [compound 2] (Hexanoyl-[dK][dK][dL][dF][dK][dK][dI][dL][dR][dY][dL]-NH2)	100
CCCCCCCCCC(=O)N[C@H](CCCCN)C(=O)N[C@H](CCCCN)C(=O)N[C@H](CC(C)C)C(=O)N[C@H](Cc1ccccc1)C(=O)N[C@H](CCCCN)C(=O)N[C@H](CCCCN)C(=O)N1CCCC[C@H](C(N)=O)NC(=O)[C@@H](Cc2ccc(O)cc2)NC(=O)[C@@H](CCCNC(=N)N)NC(=O)[C@@H](CC(C)C)NC(=O)[C@@H]([C@H](C)CC)NC(=O)C1 [compound 16]	59
CCCCCCCCCCCCCC(=O)N[C@H](CCCCN)C(=O)N[C@H](CCCCN)C(=O)N[C@H](CC(C)C)C(=O)N[C@H](Cc1ccccc1)C(=O)N[C@H](CCCCN)C(=O)N[C@H](CCCCN)C(=O)N[C@@H](C(=O)N[C@H](CC(C)C)C(=O)N[C@H](CCCNC(=N)N)C(=O)N[C@H](Cc1ccc(O)cc1)C(=O)N[C@H](CC(C)C)C(N)=O)[C@H](C)CC [compound 6] (Myristoyl-[dK][dK][dL][dF][dK][dK][dI][dL][dR][dY][dL]-NH2)	100
CCCCCCCC(=O)N[C@H](CCCCN)C(=O)N[C@H](CCCCN)C(=O)N[C@H](CC(C)C)C(=O)N[C@H](Cc1ccccc1)C(=O)N[C@H](CCCCN)C(=O)N[C@H](CCCCN)C(=O)N[C@@H](C(=O)N[C@H](CC(C)C)C(=O)N[C@H](CCCNC(=N)N)C(=O)N[C@H](Cc1ccc(O)cc1)C(=O)N[C@H](CC(C)C)C(N)=O)[C@H](C)CC [compound 3] (Octanoyl-[dK][dK][dL][dF][dK][dK][dI][dL][dR][dY][dL]-NH2)	100

Q: Supply % hemolysis of human erythrocytes value. Item: CC[C@@H](C)[C@@H](NC(=O)[C@@H](CCCCN)NC(=O)[C@@H](CCCCN)NC(=O)[C@@H](Cc1ccccc1)NC(=O)[C@@H](CC(C)C)NC(=O)[C@@H](CCCCN)NC(=O)[C@H](N)CCCCN)C(=O)N1CCCC[C@H](C(N)=O)NC(=O)[C@@H](Cc2ccc(O)cc2)NC(=O)[C@@H](CCCNC(=N)N)NC(=O)[C@@H](CC(C)C)NC(=O)C1 [compound 8]
A: 3
